- assayed_target: Large subunit-rSCFV5 fusion protein
- Sequence (chain, as listed by the source): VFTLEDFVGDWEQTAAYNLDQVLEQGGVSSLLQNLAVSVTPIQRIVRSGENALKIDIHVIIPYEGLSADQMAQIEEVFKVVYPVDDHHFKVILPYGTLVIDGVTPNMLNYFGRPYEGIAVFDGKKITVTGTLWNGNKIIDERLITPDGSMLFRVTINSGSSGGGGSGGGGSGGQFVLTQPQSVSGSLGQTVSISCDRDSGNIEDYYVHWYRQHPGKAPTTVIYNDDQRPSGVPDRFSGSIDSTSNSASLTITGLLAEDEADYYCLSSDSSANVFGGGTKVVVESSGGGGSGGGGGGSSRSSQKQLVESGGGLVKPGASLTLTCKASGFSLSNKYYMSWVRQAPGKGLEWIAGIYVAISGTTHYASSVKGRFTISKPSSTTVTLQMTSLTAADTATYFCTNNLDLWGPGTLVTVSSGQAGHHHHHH
- assay_notes: cell-based or functional assay
reported_endpoint: normalised luminescence at PCT 100000 pg/ml
Reply with the value as a number alone.

For this binder ( VDGWRLHEKIS (peptide, part only; not given: rSCFV18 scFv part, part only) [rSCFV18-small subunit mutant fusion protein RA141] ), measured normalised luminescence at PCT 100000 pg/ml is 1.4e+06

For this binder ( VSGWRIHEKIS (peptide, part only; not given: rSCFV18 scFv part, part only) [rSCFV18-small subunit mutant fusion protein RA120] ), measured normalised luminescence at PCT 100000 pg/ml is 2e+06

For this binder ( VEGYRLFNKEW (peptide, part only; not given: rSCFV18 scFv part, part only) [rSCFV18-small subunit mutant fusion protein RB284] ), measured normalised luminescence at PCT 100000 pg/ml is 862000

For this binder ( VEGYRLFDKKW (peptide, part only; not given: rSCFV18 scFv part, part only) [rSCFV18-small subunit mutant fusion protein RB239] ), measured normalised luminescence at PCT 100000 pg/ml is 2.17e+06
